test-system: HIV-1 protease 10 Mutant (Human immunodeficiency virus type 1 group M subtype B)
Construct: onto NL4-3 wild-type protease on a pET11a plasmid with codon optimization for protein expression in Escherichia coli; A Q7K mutation was included to prevent autoproteolysis
measurement-notes: HIV enzyme inhibition assay (Ki), 10 Mutant variant
protocol-conditions: drug-resistant protease variant 10 Mutant
Each item that follows carries a reported Ki.
Numbers only; they are read as nM.

Examples from the recorded data:
[[record]]
molecule = "CCOP(=O)(COc1ccc(C[C@H](NC(=O)O[C@H]2CO[C@H]3OCC[C@H]32)[C@H](O)CN(CC(CC)CC)S(=O)(=O)c2ccc(CO)cc2)cc1)OCC [Example 13]"
test_system = "HIV-1 protease 10 Mutant (Human immunodeficiency virus type 1 group M subtype B)"
recorded_value = 32.1

[[record]]
molecule = "CCOP(=O)(COc1ccc(C[C@H](NC(=O)O[C@H]2CO[C@H]3OCC[C@H]32)[C@H](O)CN(C[C@@H](C)CC)S(=O)(=O)c2ccc3ncsc3c2)cc1)OCC [Example 11]"
test_system = "HIV-1 protease 10 Mutant (Human immunodeficiency virus type 1 group M subtype B)"
recorded_value = 1.2

[[record]]
molecule = "CCOP(=O)(COc1ccc(C[C@H](NC(=O)O[C@H]2CO[C@H]3OCC[C@H]32)[C@H](O)CN(CC(CC)CC)S(=O)(=O)c2ccc(OC)cc2)cc1)OCC [Example 8]"
test_system = "HIV-1 protease 10 Mutant (Human immunodeficiency virus type 1 group M subtype B)"
recorded_value = 1.26

[[record]]
molecule = "CCOP(=O)(COc1ccc(C[C@H](NC(=O)O[C@H]2CO[C@H]3OCC[C@H]32)[C@H](O)CN(CC(CC)CC)S(=O)(=O)c2ccc(N)cc2)cc1)OCC [Example 7]"
test_system = "HIV-1 protease 10 Mutant (Human immunodeficiency virus type 1 group M subtype B)"
recorded_value = 51.6

[[record]]
molecule = "CCOP(=O)(COc1ccc(C[C@H](NC(=O)O[C@H]2CO[C@H]3OCC[C@H]32)[C@H](O)CN(CC(C)C)S(=O)(=O)c2ccc3ncsc3c2)cc1)OCC [Example 10]"
test_system = "HIV-1 protease 10 Mutant (Human immunodeficiency virus type 1 group M subtype B)"
recorded_value = 1.9


Kindly consider the entry below.
Input line: // lookup Ki for CCOP(=O)(COc1ccc(C[C@H](NC(=O)O[C@H]2CO[C@H]3OCC[C@H]32)[C@H](O)CN(CC(CC)CC)S(=O)(=O)c2ccc3ncsc3c2)cc1)OCC [Example 12]
Output line: 0.24
